target: hERG S624A (Homo sapiens, UniProt Q12809, S624A); test: Manual patch-clamp (MPC) on hERG S624A, transiently transfected CHO-K1 cells
Sequence (Q12809 whole entry S624A): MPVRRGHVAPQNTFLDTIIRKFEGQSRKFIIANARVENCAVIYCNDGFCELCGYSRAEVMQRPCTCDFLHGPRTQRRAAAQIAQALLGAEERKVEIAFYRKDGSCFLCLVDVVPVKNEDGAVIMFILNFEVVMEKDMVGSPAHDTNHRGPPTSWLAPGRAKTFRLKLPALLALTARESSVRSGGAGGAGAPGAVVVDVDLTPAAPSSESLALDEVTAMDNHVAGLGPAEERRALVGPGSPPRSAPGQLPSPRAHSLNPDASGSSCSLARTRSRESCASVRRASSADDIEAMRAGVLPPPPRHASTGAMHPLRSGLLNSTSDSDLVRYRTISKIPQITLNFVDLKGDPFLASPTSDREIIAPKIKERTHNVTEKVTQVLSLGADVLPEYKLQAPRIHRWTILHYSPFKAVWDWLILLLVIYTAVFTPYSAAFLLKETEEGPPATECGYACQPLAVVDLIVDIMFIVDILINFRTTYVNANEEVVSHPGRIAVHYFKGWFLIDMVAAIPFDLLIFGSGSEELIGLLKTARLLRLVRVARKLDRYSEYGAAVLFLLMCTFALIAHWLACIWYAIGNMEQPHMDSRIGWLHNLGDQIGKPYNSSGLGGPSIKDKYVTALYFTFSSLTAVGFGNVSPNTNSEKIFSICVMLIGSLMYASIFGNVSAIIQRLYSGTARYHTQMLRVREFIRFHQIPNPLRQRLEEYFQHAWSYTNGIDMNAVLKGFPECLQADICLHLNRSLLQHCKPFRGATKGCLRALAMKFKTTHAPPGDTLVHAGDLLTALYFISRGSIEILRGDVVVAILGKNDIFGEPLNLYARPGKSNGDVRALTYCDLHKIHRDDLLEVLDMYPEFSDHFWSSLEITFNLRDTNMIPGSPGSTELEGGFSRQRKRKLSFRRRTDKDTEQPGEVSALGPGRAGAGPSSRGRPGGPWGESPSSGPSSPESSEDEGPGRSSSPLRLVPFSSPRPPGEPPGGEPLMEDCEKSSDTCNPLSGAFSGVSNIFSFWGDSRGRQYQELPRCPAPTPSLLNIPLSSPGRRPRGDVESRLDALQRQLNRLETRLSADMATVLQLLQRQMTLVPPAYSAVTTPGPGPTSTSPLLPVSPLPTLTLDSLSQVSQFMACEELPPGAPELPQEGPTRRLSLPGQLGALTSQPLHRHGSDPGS
ENDPOINT NAME: IC50

- COC(=O)C(NC(=O)c1nn(CCCCCF)c2ccccc12)C(C)(C)C (stereo not shown): 9.6 µM

---

molecular target: hERG S649A (Homo sapiens, UniProt Q12809, S649A); assay: Manual patch-clamp (MPC) on hERG S649A, transiently transfected CHO-K1 cells
Sequence (Q12809 whole entry S649A): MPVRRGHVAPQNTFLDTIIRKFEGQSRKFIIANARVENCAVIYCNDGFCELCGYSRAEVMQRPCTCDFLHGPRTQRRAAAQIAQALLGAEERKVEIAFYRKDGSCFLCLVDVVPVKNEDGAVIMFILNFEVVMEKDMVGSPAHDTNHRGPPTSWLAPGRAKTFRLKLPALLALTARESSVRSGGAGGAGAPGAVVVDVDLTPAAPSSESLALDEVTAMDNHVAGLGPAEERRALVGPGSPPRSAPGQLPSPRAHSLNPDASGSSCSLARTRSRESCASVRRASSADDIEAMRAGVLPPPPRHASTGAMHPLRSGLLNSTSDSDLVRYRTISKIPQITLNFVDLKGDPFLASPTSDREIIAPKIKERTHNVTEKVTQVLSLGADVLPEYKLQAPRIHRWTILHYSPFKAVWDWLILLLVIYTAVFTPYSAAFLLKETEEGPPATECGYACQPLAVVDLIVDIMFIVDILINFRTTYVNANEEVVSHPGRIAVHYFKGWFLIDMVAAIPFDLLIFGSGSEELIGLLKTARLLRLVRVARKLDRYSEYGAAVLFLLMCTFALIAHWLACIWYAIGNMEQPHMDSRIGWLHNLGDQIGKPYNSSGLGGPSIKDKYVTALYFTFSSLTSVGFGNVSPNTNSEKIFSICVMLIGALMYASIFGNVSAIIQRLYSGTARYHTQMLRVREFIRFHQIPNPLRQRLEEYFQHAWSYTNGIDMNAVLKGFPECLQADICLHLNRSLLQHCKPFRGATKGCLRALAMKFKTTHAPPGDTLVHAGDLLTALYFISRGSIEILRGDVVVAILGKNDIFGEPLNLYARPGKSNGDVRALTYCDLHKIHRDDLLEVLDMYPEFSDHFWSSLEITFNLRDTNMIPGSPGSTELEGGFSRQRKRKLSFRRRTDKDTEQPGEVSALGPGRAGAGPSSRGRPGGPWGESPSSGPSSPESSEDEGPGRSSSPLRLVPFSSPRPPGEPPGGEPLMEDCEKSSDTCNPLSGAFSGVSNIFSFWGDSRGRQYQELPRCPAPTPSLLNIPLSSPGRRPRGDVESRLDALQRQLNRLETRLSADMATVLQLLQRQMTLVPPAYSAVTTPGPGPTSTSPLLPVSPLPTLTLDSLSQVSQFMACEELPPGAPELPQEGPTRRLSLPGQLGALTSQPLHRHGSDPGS
pIC50: −log10 of the molar value.
ENDPOINT NAME: pIC50

* COC(=O)C(NC(=O)c1nn(CCCCCF)c2ccccc12)C(C)(C)C (stereo not shown) | 4.78
